- Test Target: T1, His-FLP (FOUR LIPS, MYB124) (UniProt Q94FL6 1-436)
- T1 sequence: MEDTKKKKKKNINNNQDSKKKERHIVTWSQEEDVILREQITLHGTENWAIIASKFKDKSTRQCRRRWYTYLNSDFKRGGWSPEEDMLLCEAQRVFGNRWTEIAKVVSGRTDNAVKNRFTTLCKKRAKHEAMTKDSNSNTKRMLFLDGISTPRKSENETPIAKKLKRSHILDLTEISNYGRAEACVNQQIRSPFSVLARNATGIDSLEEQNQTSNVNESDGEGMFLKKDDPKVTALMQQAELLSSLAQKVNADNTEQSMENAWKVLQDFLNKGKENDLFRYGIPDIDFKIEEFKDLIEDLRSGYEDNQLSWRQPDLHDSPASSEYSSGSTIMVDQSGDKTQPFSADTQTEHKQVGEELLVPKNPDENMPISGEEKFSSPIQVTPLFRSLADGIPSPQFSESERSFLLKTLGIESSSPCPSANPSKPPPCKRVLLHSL
- Method Description: EMSA; 1x binding buffer (LightShift kit), 2.5% glycerol, 50 mM KCl, 5 mM MgCl2, 0.05% NP-40, 10 mM EDTA, room temperature, 20 min; pH not stated
Test Readout: binding result

binder="Probe-902 (dsDNA) DNA 1: TATTTAACTATTGCTTTTTTGATTATTAGCCGGGGTACCAAGATATTAGTTTTTAATTT DNA 2: AAATTAAAAACTAATATCTTGGTACCCCGGCTAATAATCAAAAAAGCAATAGTTAAATA" assay_value=binds
